Please respond with reported IC50 for every item in the list.
molecular target: UniProtKB O77760; assay: Inhibition of African green monkey SOAT1 isolated from CHO cell microsomes assessed as decrease in [14C]CE synthesis from [1-14C]oleoyl-CoA after 5 mins
Sequence (O77760 whole entry): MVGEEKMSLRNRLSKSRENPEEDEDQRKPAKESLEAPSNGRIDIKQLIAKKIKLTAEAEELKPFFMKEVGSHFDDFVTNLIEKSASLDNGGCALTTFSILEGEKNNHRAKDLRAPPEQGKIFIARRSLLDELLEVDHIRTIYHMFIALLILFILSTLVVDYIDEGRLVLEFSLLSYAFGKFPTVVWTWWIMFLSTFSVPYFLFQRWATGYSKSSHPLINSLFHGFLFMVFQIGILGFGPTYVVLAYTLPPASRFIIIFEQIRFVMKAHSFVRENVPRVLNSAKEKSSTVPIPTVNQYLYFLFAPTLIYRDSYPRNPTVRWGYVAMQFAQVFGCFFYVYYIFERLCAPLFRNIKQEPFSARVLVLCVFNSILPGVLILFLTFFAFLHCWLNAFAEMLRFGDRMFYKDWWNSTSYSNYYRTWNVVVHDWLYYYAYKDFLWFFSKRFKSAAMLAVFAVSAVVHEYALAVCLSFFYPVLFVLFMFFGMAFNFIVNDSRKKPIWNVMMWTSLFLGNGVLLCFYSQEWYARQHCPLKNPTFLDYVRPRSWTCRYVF
Output spec: scalar in µM, unitless text.

*Q* Would you kindly share the measured IC50 for CCC(=O)[C@H](C[C@H](C)C(Cl)(Cl)Cl)NC(=O)/C=C/[C@H](C)C(Cl)(Cl)Cl ?
*A* 1

*Q* Would you kindly share the measured IC50 for CCC(=O)[C@H](C[C@H](C)C(Cl)(Cl)Cl)NC(=O)[C@H](C[C@H](C)C(Cl)(Cl)Cl)N(C)C ?
*A* 0.23

*Q* Would you kindly share the measured IC50 for C[C@@H](C[C@H]1C(=O)N(C)[C@@H](C[C@H](C)C(Cl)(Cl)Cl)C(=O)N1C)C(Cl)(Cl)Cl ?
*A* 2.1
